The measured values listed here are drawn from paper PMC9352680.

- target.system: T1, PUF4 RNA-binding domain (Saccharomyces cerevisiae, UniProt P25339 537-888)
- T1 sequence: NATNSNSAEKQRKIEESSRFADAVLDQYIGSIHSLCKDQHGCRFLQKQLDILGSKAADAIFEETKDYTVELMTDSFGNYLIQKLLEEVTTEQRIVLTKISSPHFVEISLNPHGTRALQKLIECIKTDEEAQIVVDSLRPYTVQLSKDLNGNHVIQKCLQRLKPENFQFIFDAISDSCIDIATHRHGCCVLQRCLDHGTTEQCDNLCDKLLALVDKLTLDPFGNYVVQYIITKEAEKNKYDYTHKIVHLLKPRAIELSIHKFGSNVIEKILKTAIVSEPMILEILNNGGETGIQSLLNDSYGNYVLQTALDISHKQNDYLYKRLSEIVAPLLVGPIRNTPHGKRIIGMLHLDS
- test: Mg; RNA-MaP; 20 mM Na-HEPES pH 7.4, 30 mM KOAc, 0.75 mM MgCl2, 0.1% Tween-20, 5% glycerol, 0.1 mg/mL BSA, 2 mM DTT; 25 C; 0.0125-409.6 nM protein
- measurement.parameters: tags: N-His6-TEV cleaved; C-SNAP kept, Cy3B-labelled; label: tethered on chip by stalled RNA polymerase
observed.property: pKd
Answers are plain numbers, as −log10 of the molar value.

{"columns": ["binder", "pKd"],
 "data": [
  ["Id_ii_S2_P3E.3_K3.2_C3.2_H3.2_A3.1_F3.1_T3.2_[T9A]_[A10T] (ssRNA) RNA: UUUGAUUAAUAUGAUAUCGUUCUUUCUCUUAUAUAUAAUUUCUUUCUCGAUAUCAUAUUAAUCUUU", 6.92],
  ["UCUCUUUGUAUUCCUUAUUAUCUCUU (ssRNA) [Ie_S1_P4E.1_K4.1_C4.1_H4.1_[+4TTCCT]_A4.1_F4.1_T4.1]", 7.72],
  ["Ib_S2_P4E.1_K4.1_C4.1_H4.1_A4.1_[T5A]_[T7C]_F4.1_T4.1 (ssRNA) RNA: UUUGAUUAAUAUGAUAUCGUUCUUUCUUGUAAACUAUUCUUUCUCGAUAUCAUAUUAAUCUUU", 8.92]
]}

Give pKd for each of the items listed below.
1. ACAAACAUUAUAUAUAUUACAAAC (ssRNA) [Id_ii_S3_P3E.3_K3.2_C3.2_[C-2A]_H3.2_A3.1_F3.1_T3.2_[A10T]]
2. Ie_S2_P4E.1_K4.1_C4.1_H4.1_[+1TCTCT]_A4.1_F4.1_T4.1 (ssRNA) RNA: UUUGAUUAAUAUGAUAUCGUUCUUUCUUUCUCUGUAUAUUAUUCUUUCUCGAUAUCAUAUUAAUCUUU
3. Id_ii_S2_P4E.3_K4.2_C4.2_[T-1C]_H4.2_A4.1_F4.1_T4.2_[G10T]_[T11G] (ssRNA) RNA: UUUGAUUAAUAUGAUAUCGUUCUUUCUCCUAUAUAUUAUGUUCUUUCUCGAUAUCAUAUUAAUCUUU
4. Ic_S4_P4E.1_K4.1_C4.1_H4.1_A4.1_[T5A]_[T7C]_F4.1_[A9C]_T4.1 (ssRNA) RNA: UUUGACAACUGAUCGUUCUUUCUUGUAAACUCUUCUUUCUCGAUCAGUUGUCUUU
5. UCUCUUUGUGUGUAUCUCUU (ssRNA) [Ib_S1_P3E.1_K3.1_C3.1_H3.1_[A4G]_A3.1_[A6G]_F3.1_T3.1]

// result
1: 7.48; 2: 9.60; 3: 8.23; 4: 7.12; 5: 6.75
